Item-by-item account of Strip length (as percentage of baseline)
# Test system: fundus strips (stomach muscularis)
# assay-summary: Fundus strip length after acetylcholine-induced contraction
# Set-up: species or system domestic pigs
# measurement-context: 70 mg/L + acetylcholine 10^-4 M, 37° C., time 30 min
# Description: Within the gastro-intestinal tract, local circuits play a role in the regulation of food intake and transport. Mechanical extension of the stomach as a result of food intake activates stretch receptors (neurons) which in turn induces satiety signals. The pharmacology of stretch receptors can be analyzed in fundus strip preparations. […] The length of the strips was measured by a blinded assessor (unknowing of the treatment) using Photoshop software (Adobe).
Marks after values point to notes of the source that are not given here.
measurement-label: Strip length (as percentage of baseline)

# compound, reading
rows = [
    ("CCOC(=O)c1ccc(N)cc1", "101.5* percentage of baseline"),
    ("CCN(CC)CC(=O)Nc1c(C)cccc1C", "99.5 percentage of baseline"),
    ("CCCNC(C)C(=O)Nc1ccccc1C (centres unmarked)", "106.3** percentage of baseline"),
    ("CN(C(=O)CN(CCO)CC(=O)N(C)C(C)(C)Cc1ccccc1)C(C)(C)Cc1ccccc1", "101.3 percentage of baseline"),
    ("CCCCN1CCCCC1C(=O)Nc1c(C)cccc1C (centres unmarked)", "106.8*** percentage of baseline"),
]
